Each entry below lists one item and its recorded enrichment ratio value.
B1: PhoQ; a variant is named by its letters at X, in order, P23837 (parent)
chain: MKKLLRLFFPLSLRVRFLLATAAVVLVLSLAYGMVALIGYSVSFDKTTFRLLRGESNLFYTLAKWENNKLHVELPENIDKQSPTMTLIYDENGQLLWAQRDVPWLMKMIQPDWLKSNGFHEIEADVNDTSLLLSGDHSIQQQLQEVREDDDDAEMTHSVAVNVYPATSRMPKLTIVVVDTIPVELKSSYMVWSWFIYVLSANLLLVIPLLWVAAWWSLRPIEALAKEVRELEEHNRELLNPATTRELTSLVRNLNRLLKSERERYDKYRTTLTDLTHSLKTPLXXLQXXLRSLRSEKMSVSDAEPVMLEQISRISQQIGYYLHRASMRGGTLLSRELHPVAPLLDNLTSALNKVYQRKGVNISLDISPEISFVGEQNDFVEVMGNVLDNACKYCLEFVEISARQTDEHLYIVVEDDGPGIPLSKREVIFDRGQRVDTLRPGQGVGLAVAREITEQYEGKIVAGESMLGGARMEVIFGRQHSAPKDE

variants of: B1; assay: enrichment ratio after two sorts for PhoP signalling (ratio (wild type AVST 3.29)); higher = more functional; conditions: with PhoP (E. coli)
Over roughly 140,000 sequences, “enrichment ratio after two sorts for PhoP signalling” has its median near 0; the highest 2% begin near 11. The full list was thinned out, with the highest values kept by preference.
readout: enrichment ratio

| mutant id | result value |
| --- | --- |
| GAMS | ≤ 0.25 |
| RATT | ≤ 0.25 |
| RKTS | ≤ 0.25 |
| MELV | 18.1 |
| GMLN | 0.729 |
| DCPT | ≤ 0.25 |
| LMQH | ≤ 0.25 |
| QPLV | ≤ 0.25 |
| GTCN | 3.53 |
| SNCN | 7.42 |
| LARM | ≤ 0.25 |
| NFLV | ≤ 0.25 |
| ENFI | ≤ 0.25 |
| TECN | 60.8 |
| PRSD | ≤ 0.25 |
| STLV | 15.4 |
| WRPN | ≤ 0.25 |
| PSRQ | ≤ 0.25 |
| DPLV | ≤ 0.25 |
| FECN | 13 |
| SPLV | ≤ 0.25 |
| FNCN | ≤ 0.25 |
